# System: CEM cells HIV-1 protection, formazan growth assay
# measurement_description: NCI AIDS Antiviral Assay
pEC50: −log10 of the molar value.

compound | pEC50
CN1CCN(CCCN2c3ccccc3Sc3ccc(Cl)cc32)CC1 | < 3.70
CC1CCCc2c1n[nH]c2CC1CC(=O)NC(=O)C1 (stereo not given) | < 3.70
O=CC(O)C(O)C(O)C(O)COP(=O)(O)Cc1ccccc1 (stereo not given) | < 3.70
O=C1c2cccc3cc([N+](=O)[O-])cc(c23)C(=O)N1c1ccc(OCCN2CCCC2)cc1 | < 3.70
CC1=C2[C@@H](c3ccccc3)C3C=CC2(C=C3C(F)(F)F)N(C(=O)NC2CCCCC2)C1=O (stereo not given in full) | < 4.79

----------
# Tested on: CEM cells HIV-1 protection, formazan growth assay
# measurement_description: NCI AIDS Antiviral Assay
# Protocol: The ability of compounds to protect human CEM cells from HIV-1 infection is measured as a screen for new compounds capable of inhibiting the HIV virus. Five concentrations of drug were tested on uninfected and infected cells and cell growth was measured using a soluble formazan assay. […] Compounds that provided at least 50% protection were retested. Compounds that provided at least 50% protection on retest were listed as moderately active. […]
pEC50: −log10 of the molar value. Where a SMILES comes first, the peptide text is derived from it. Bridges are numbered along the chain shown (N, C = ends). [ ]: non-standard residue; d: D form. Aib = CC(C)(N)C(=O)O; βAla = NCCC(=O)O

compound | target_or_test_system | pEC50
NC(N)=N/N=C(\c1ccccc1)C(O)c1ccccc1 (stereo not given) | CEM cells HIV-1 protection, formazan growth assay | < 3.70
CCOC(=O)NNC(=O)NCCNC(=O)NNC(=O)OCC | CEM cells HIV-1 protection, formazan growth assay | < 3.70
COc1ccc(NC(=O)/C(Cc2cc(=O)oc3cc(O)ccc23)=N\NC(C)(C)C)c(OC)c1 | CEM cells HIV-1 protection, formazan growth assay | < 4.52
O=C1OC(C2OC(=O)c3cc(O)c(O)c(O)c3-c3c(O)c(O)c4oc(=O)c5c(c(O)c(O)c6oc(=O)c3c4c65)-c3c(cc(O)c(O)c3O)C(=O)OCC2O)C2OC(=O)c3c(c(O)c(O)c(O)c3C2O)-c2c1cc(O)c(O)c2O (stereo not given) | CEM cells HIV-1 protection, formazan growth assay | 5.79
O=C1CC2(CC=CCC23OCCO3)CC(CI)O1 (stereo not given) | CEM cells HIV-1 protection, formazan growth assay | < 3.70
CN(C)CCNc1c([N+](=O)[O-])sc2ccc(Cl)cc12 | CEM cells HIV-1 protection, formazan growth assay | < 3.70
c1ccc2c(c1)nnn1c3ncccc3nc21 | CEM cells HIV-1 protection, formazan growth assay | < 4.23
CCN1C(=O)N(C)C(O)c2c1nc1ccccn1c2=O (stereo not given) | CEM cells HIV-1 protection, formazan growth assay | < 3.74
CC1(C)NC(=O)C(NC(=O)C(N)CC(=O)O)CCCCNC(=O)CCNC1=O (stereo not given) (H-DK[Aib][βAla]; lactam 2-C; configuration not given here) | CEM cells HIV-1 protection, formazan growth assay | < 3.70
CCC(CC)(C(=O)O)C(=O)O | CEM cells HIV-1 protection, formazan growth assay | < 3.70
O=c1c2cc([N+](=O)[O-])cnc2sn1-c1ccc(Br)cc1 | CEM cells HIV-1 protection, formazan growth assay | < 3.70
O=S(=O)(/N=C1/SC(=Nc2ccccc2)N(c2ccccc2)/C1=N/S(=O)(=O)c1ccccc1)c1ccccc1 | CEM cells HIV-1 protection, formazan growth assay | < 3.70
COc1cc(C2c3cc4c(cc3C(O)[C@H]3COC(=O)[C@@H]23)OCO4)cc(OC)c1O (stereo not given in full) | CEM cells HIV-1 protection, formazan growth assay | < 3.70
C/C(=C\CNc1ncnc2c1ncn2CCC(=O)OC(C)(C)C)CO | CEM cells HIV-1 protection, formazan growth assay | < 3.70
O=C(NNc1nc2ccccc2n2cccc12)Nc1ccc(Br)cn1 | CEM cells HIV-1 protection, formazan growth assay | < 3.70
Cc1ccc(/C=C2\CN(C)CC3C2=NC(=S)NC3c2ccc(C)cc2)cc1 (stereo not given) | CEM cells HIV-1 protection, formazan growth assay | < 3.70
COc1cc(/C=C2/SC(c3ccccc3)N(c3cccc([N+](=O)[O-])c3)C2=O)cc(OC)c1OC (stereo not given) | CEM cells HIV-1 protection, formazan growth assay | < 3.70
Cc1nc(C(N)=S)sc1C(=O)CC(=O)C(=O)Nc1ccc(Br)cc1 | CEM cells HIV-1 protection, formazan growth assay | < 4.07
CCc1cccc(C(C)C)c1NC(=O)C(=O)C(CC(=O)Nc1ccc(Cl)c(Cl)c1)C(=O)OC (stereo not given) | CEM cells HIV-1 protection, formazan growth assay | < 4.97
c1cnc(NC(Nc2cnccn2)C2CCCCC2)cn1 | CEM cells HIV-1 protection, formazan growth assay | < 3.62
